system: ERR1 (also known as ERR-α or ERR-1) (Homo sapiens)
Sequence (P11474 193-421 limits assumed): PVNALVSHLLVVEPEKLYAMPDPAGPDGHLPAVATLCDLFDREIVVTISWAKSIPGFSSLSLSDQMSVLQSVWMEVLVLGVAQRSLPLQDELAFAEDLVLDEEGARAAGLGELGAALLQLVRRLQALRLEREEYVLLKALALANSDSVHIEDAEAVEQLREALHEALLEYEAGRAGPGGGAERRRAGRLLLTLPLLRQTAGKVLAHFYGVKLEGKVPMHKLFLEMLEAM
protocol-details: TR-FRET assay (disruption of co-activator peptide binding)
reported-conditions: 6His-tagged ERR1 LBD, GST-hSRC2 co-activator polypeptide; average of 3 independent experiments
pEC50: −log10 of the molar value.
measurement-kind: pEC50

NC(=O)CN1CCN(C2=NC(=O)/C(=C/c3ccc4c(cnn4Cc4ccc(Cl)cc4C(F)(F)F)c3)S2)CC1 [Example 79]; 8.05
O=C1N=C(N2CCCO2)S/C1=C\c1ccc2c(cnn2Cc2ccc(Cl)cc2C(F)(F)F)c1 [Example 126]; 7.62
COc1ccc(Cn2ncc3cc(/C=C4\SC(N5CCN[C@@H](CO)C5)=NC4=O)ccc32)c(C(F)(F)F)c1 [Example 248]; 7.85
O=C1N=C(N2CC(C(=O)O)C2)S/C1=C\c1ccc2c(cnn2Cc2ccc(C(F)(F)F)cc2C(F)(F)F)c1 [Example 35]; 7.84
CC(=O)OC[C@@H]1CN(C2=NC(=O)/C(=C/c3ccc4c(cnn4Cc4ccc(C(F)(F)F)cc4C(F)(F)F)c3)S2)CCO1 [Example 280]; 8.52

A = O=C1N=C(N2CCC[C@H](C(=O)O)C2)S/C1=C\c1ccc2c(cnn2Cc2ccc(Cl)cc2C(F)(F)F)c1 [Example 48]
B = O=C1N=C(N2CCC(C(=O)O)CC2)S/C1=C\c1ccc2c(cnn2Cc2ccc(Cl)cc2C(F)(F)F)c1 [Example 39]
Kindly identify the item with the lower pEC50 figure among these two: A and B Indicate your choice by writing its label.
A
(A: 7.84, B: 8.49)
